Consider the following compounds and their measured fraction unbound readings.
- Assay Method Text: Protein binding in human plasma
- Assay type: ADME, cell-free
- Measurement Setup: read-out: PPB (converted)
Please give only the number in your answer, with no unit.

COc1ncc(OC)c2c(C(=O)C(=O)N3CCN(C(=O)c4ccccc4)CC3)c[nH]c12: 0.05

Attention now shifts to the item below.
Input line: Recorded fraction unbound for COc1ccnc2[nH]cc(C(=O)C(=O)N3CCN(C(=O)c4ccccc4)C[C@H]3C)c12 , please?
Output line: 0.27

* * *

- Assay Method Text: Dissociation constant, pKa of the compound
- Format: physicochemical
Measurement Type: pKa

COc1ncc(OC)c2c(C(=O)C(=O)N3CCN(C(=O)c4ccccc4)CC3)c[nH]c12: 2.9 to 9.3

Input line: Recorded pKa for COc1ccnc2[nH]cc(C(=O)C(=O)N3CCN(C(=O)c4ccccc4)C[C@H]3C)c12 , please?
Output line: 2.9 to 9.6

* * *

- System: Human immunodeficiency virus 1
- Assay Method Text: Antiviral activity against HIV 1 isolate JRFL by single cycle infectivity assay
- Format: functional
- Measurement Setup: Human immunodeficiency virus 1, isolate JRFL
Measurement Type: pEC50
Just the number, please; pEC50 means minus log10 of the concentration in mol/L.

Examples with their reported pEC50 follow.
COc1cnc(-n2cc(C)cn2)c2[nH]cc(C(=O)C(=O)N3CCN(C(=O)c4ccccc4)CC3)c12: 9.39
COc1cnc(-n2ccc(C)n2)c2[nH]cc(C(=O)C(=O)N3CCN(C(=O)c4ccccc4)CC3)c12: 9.96

Input line: Recorded pEC50 for COc1cnc(-n2cnc(C)n2)c2[nH]cc(C(=O)C(=O)N3CCN(C(=O)c4ccccc4)CC3)c12 , please?
Output line: 9.85

Input line: Same question, COc1cnc(-n2ccnn2)c2[nH]cc(C(=O)C(=O)N3CCN(C(=O)c4ccccc4)CC3)c12 this time
Output line: 9.11

Input line: Same question, O=C(C(=O)N1CCN(C(=O)c2ccccc2)CC1)c1c[nH]c2c(-c3ncon3)ncc(F)c12 this time
Output line: 8.89

Input line: Same question, COc1cnc(-n2cncn2)c2[nH]cc(C(=O)C(=O)N3CCN(C(=O)c4ccccc4)CC3)c12 this time
Output line: 9.68

* * *

- Tested on: Human immunodeficiency virus 1
- Assay Method Text: Antiviral activity against HIV-1 isolate CRF_BF by p24 ELISA
- Assay type: functional
- Measurement Setup: Human immunodeficiency virus 1, isolate CRF_BF
Measurement Type: EC50 (nM)
Write down the numeric answer in nM and omit the unit.

Input line: Recorded EC50 for COc1cnc(-n2cnc(C)n2)c2[nH]cc(C(=O)C(=O)N3CCN(C(=O)c4ccccc4)CC3)c12 , please?
Output line: 3.09

* * *

- Tested on: Human immunodeficiency virus 1
- Assay Method Text: Antiviral activity against HIV-1 RF infected in human MT2 cells harboring CXCR4 co-receptor after 4 to 6 days
- Format: functional, cell-based
- Measurement Setup: Human immunodeficiency virus 1, RF
Measurement Type: EC50

COc1cnc(-n2cnc(C)n2)c2[nH]cc(C(=O)C(=O)N3CCN(C(=O)c4ccccc4)CC3)c12: > 2 µM

Attention now shifts to the item below.
Input line: Recorded EC50 for COc1ncc(OC)c2c(C(=O)C(=O)N3CCN(C(=O)c4ccccc4)CC3)c[nH]c12 , please?
Output line: > 2 µM

* * *

- Test system: Canis familiaris
- Assay Method Text: Oral bioavailability in dog assessed as 1-(4-benzoylpiperazin-1-yl)-2-(4-methoxy-7-(3-methyl-1H-1,2,4-triazol-1-yl)-1H-pyrrolo[2,3-c]pyridin-3-yl)ethane-1,2-dione level
- Format: ADME, organism-based, Canis lupus familiaris
- Measurement Setup: in vivo
Measurement Type: bioavailability

Input line: Recorded bioavailability for COc1cnc(-n2cnc(C)n2)c2c1c(C(=O)C(=O)N1CCN(C(=O)c3ccccc3)CC1)cn2COP(=O)(O)O.NC(CO)(CO)CO [FOSTEMSAVIR TROMETHAMINE] , please?
Output line: 80 to 122%

* * *

- Assay Method Text: Oral bioavailability in cynomolgus monkey at 10 mg/kg
- Type: ADME, organism-based, Macaca fascicularis
- Measurement Setup: in vivo
Measurement Type: bioavailability (%)
Write down the numeric answer in % and omit the unit.

Input line: Recorded bioavailability for O=C(C(=O)N1CCN(C(=O)c2ccccc2)CC1)c1c[nH]c2cccc(F)c12 , please?
Output line: 100

* * *

- Assay Method Text: Oral bioavailability in rat at 1 mg/kg
- Assay type: ADME, organism-based
- Measurement Setup: in vivo
Measurement Type: bioavailability (%)
Write down the numeric answer in % and omit the unit.

Input line: Recorded bioavailability for O=C(C(=O)N1CCN(C(=O)c2ccccc2)CC1)c1c[nH]c2cccc(F)c12 , please?
Output line: 4

* * *

Consider the following compounds and their measured pIC50 readings.
- Assay Method Text: Competitive inhibition of soluble CD4 binding to HIV-1 gp120 after 2 hrs by ELISA
- Set-up: species or system Human immunodeficiency virus 1
Just the number, please; pIC50 means minus log10 of the concentration in mol/L.

COc1ncc(OC)c2c(C(=O)C(=O)N3CCN(C(=O)c4ccccc4)CC3)c[nH]c12: 7.06

Attention now shifts to the item below.
Input line: Recorded pIC50 for COc1ccnc2[nH]cc(C(=O)C(=O)N3CCN(C(=O)c4ccccc4)C[C@H]3C)c12 , please?
Output line: 7.00

* * *

- Assay Method Text: Aqueous solubility of the compound at pH 7.4
- Assay type: physicochemical
Measurement Type: solubility (µg/mL)
Write down the numeric answer in µg/mL and omit the unit.

Input line: Recorded solubility for O=C(C(=O)N1CCN(C(=O)c2ccccc2)CC1)c1c[nH]c2c(-n3ccnn3)ncc(F)c12 , please?
Output line: 7

* * *

- Assay Method Text: Aqueous solubility of the compound at pH 2 to 9
- Format: physicochemical
Measurement Type: solubility (µg/mL)
Write down the numeric answer in µg/mL and omit the unit.

Input line: Recorded solubility for COc1cnc(-n2cnc(C)n2)c2[nH]cc(C(=O)C(=O)N3CCN(C(=O)c4ccccc4)CC3)c12 , please?
Output line: 20

* * *

- Species: Homo sapiens
- Assay Method Text: Tmax in human assessed as 1-(4-benzoylpiperazin-1-yl)-2-(4,7-dimethoxy-1H-pyrrolo[2,3-c]pyridin-3-yl)ethane-1,2-dione level
- Type: ADME
Measurement Type: Tmax

Input line: Recorded Tmax for COc1cnc(OC)c2c1c(C(=O)C(=O)N1CCN(C(=O)c3ccccc3)CC1)cn2COP(=O)(O)O.NCCCC[C@H](N)C(=O)O , please?
Output line: 30 to 60 min

* * *

- Assay Method Text: Oral bioavailability in rat dosed as suspension
- Assay type: ADME, organism-based
- Measurement Setup: in vivo
Measurement Type: bioavailability (%)
Write down the numeric answer in % and omit the unit.

Input line: Recorded bioavailability for COc1cnc(-n2cnc(C)n2)c2[nH]cc(C(=O)C(=O)N3CCN(C(=O)c4ccccc4)CC3)c12 , please?
Output line: 52

* * *

- Test system: Human immunodeficiency virus 1
- Assay Method Text: Antiviral activity against HIV-1 isolate MN infected in human MT2 cells harboring CXCR4 co-receptor after 4 to 6 days
- Assay type: functional, cell-based
- Measurement Setup: Human immunodeficiency virus 1, isolate MN
pEC50: −log10 of the molar value.
Measurement Type: pEC50

Input line: Recorded pEC50 for COc1ncc(OC)c2c(C(=O)C(=O)N3CCN(C(=O)c4ccccc4)CC3)c[nH]c12 , please?
Output line: < 6.00

* * *

- Target Or System: Cytochrome P450 3A4 (Homo sapiens)
- Sequence (P08684 whole entry): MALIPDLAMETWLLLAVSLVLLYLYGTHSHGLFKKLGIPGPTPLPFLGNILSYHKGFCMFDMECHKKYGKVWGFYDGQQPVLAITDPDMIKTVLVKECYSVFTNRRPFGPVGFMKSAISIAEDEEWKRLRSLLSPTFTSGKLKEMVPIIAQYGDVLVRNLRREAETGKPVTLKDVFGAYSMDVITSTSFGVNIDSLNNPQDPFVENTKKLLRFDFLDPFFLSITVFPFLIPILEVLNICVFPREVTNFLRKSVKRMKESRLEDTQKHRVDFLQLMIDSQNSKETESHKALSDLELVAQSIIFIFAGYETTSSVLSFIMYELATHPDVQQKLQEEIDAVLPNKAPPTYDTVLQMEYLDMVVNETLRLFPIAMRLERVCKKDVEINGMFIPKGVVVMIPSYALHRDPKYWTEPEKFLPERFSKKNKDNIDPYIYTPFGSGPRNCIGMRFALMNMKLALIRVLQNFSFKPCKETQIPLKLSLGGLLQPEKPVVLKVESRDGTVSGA
Measurement Type: IC50

Input line: Recorded IC50 for COc1cnc(-n2cncn2)c2[nH]cc(C(=O)C(=O)N3CCN(C(=O)c4ccccc4)CC3)c12 , please?
Output line: 1 µM

* * *

- Assay Method Text: Aqueous solubility of the compound at pH 1.5 to 8.2
- Format: physicochemical
Measurement Type: solubility

Input line: Recorded solubility for COc1cnc(-n2cnc(C)n2)c2c1c(C(=O)C(=O)N1CCN(C(=O)c3ccccc3)CC1)cn2COP(=O)(O)O.NC(CO)(CO)CO [FOSTEMSAVIR TROMETHAMINE] , please?
Output line: > 11 mg/mL
